Target: Lymphocyte-specific protein tyrosine kinase (Lck), enzyme in cell-free kinase assay (human, UniProt P06239 1-509, limits assumed)
Sequence (P06239 whole entry): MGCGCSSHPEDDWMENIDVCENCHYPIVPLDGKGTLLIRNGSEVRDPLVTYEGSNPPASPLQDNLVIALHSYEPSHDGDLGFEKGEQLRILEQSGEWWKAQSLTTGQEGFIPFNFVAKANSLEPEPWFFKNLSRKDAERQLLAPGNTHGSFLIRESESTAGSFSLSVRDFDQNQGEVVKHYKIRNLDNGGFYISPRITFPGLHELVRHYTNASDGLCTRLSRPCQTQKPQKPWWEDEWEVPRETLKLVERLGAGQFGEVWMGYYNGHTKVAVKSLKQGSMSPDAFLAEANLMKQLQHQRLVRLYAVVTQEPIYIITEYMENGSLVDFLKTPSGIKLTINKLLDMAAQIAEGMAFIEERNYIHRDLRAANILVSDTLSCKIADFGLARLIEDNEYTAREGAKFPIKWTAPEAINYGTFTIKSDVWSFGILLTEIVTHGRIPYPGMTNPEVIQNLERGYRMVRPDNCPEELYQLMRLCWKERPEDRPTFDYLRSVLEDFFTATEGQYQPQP
Experiment: cell-based or functional assay
Threshold 5%. Lck Activation above control, 30 µM below it: T. Lck Activation above control, 30 µM at it or above: F.

For orientation, consider the following solved cases.
binder	category
RSAAKNPLY	T
RSKAKNPLYR	T
RVKVKVVVV	F

In: Lab note: Lck Activation above control, 30 µM threshold 5%. Does this binder come in strictly under it? `KEKLKNPLF`
Out: F

In: Lab note: Lck Activation above control, 30 µM threshold 5%. Does this binder come in strictly under it? `RSKAANPLY`
Out: T

In: Lab note: Lck Activation above control, 30 µM threshold 5%. Does this binder come in strictly under it? `RSKAKNPLY`
Out: F

Values were extracted from patent US11912789.
